assay: Oral bioavailability in mice, Method A (plasma and brain PK); assay type: in vivo, CD-1 mice; conditions: male, CD-1, mouse brain, 10 mg/kg po, read-out: t1/2 (po)
Measured endpoint: half-life (min)
Give the value in min but do not write min after it.

[in] Given CNC1(c2ccccc2Cl)CCCCC1=O (racemic) [racemic ketamine, ketamine] , state its recorded half-life.
[out] 12.2

* * *

assay: Oral bioavailability in mice, Method B (plasma and brain PK); type: in vivo, C57BL/6 mice; settings: male, C57BL/6; mouse plasma, Method B, 1 mg/kg po; values represent AUC0-last; read-out: AUC0-inf (po) (converted)
Measured endpoint: AUC(0-inf) (ng·h/mL)
Give the value in ng·h/mL but do not write ng·h/mL after it.

Answered cases to consult:
CN[C@]1(c2ccc(F)cc2)CCCCC1=O ... 46.6
N[C@]1(c2cccc(F)c2)CCCCC1=O ... 542
N[C@]1(c2ccc(F)cc2)CCCCC1=O ... 470

Turning now to a further record.
[in] Given CN[C@@]1(c2ccc(F)cc2)CCCCC1=O , state its recorded AUC(0-inf).
[out] 38.8

Taken from patent US20240300886A1.
